Below is a list of entries, each paired with its recorded GI50 value.
test system: SK-BR-3 cancer cells; test: Inhibitory activity against proliferation of SK-BR-3 cancer cells (CellTiter-Glo); assay type: cell-based; details: Homo sapiens, SK-BR-3, 120 h, ErbB2-overexpressing SK-BR-3 cells, 120 hours after treatment

[
  {
    "Compound": "C=CC(=O)Nc1cc(Nc2cc(N3OCC[C@@H]3c3ccc(F)c(Oc4cccc(F)c4)c3)ncn2)c(OC)cc1N1CCN(C)CC1 [Example compound 153]",
    "GI50": "50 to 500 nM"
  },
  {
    "Compound": "C=CC(=O)Nc1cc(Nc2cc(N3OCC[C@@H]3c3cc(F)cc(Oc4cccc(F)c4)c3)ncn2)c(OC)cc1N1CCN(C)[C@@H](C)C1 [Example 223]",
    "GI50": "< 50 nM"
  },
  {
    "Compound": "C=CC(=O)Nc1cc(Nc2cc(N3OCC[C@@H]3c3cc(F)cc(-c4cccc(F)c4)c3)ncn2)c(OC)cc1N1CCN(C)CC1 [Example compound 130]",
    "GI50": "< 50 nM"
  },
  {
    "Compound": "C=CC(=O)Nc1cc(Nc2cc(N3OCC[C@@H]3c3cccc(-c4ccccc4)c3)ncn2)c(OC)cc1N1CCN(CCC)CC1 [Example 230]",
    "GI50": "< 50 nM"
  },
  {
    "Compound": "C=CC(=O)Nc1cc(Nc2cc(N3OCC[C@@H]3c3cccc(C#CC(C)(C)C)c3)ncn2)c(OC)cc1N1CCN(C)CC1 [Example 311]",
    "GI50": "50 to 500 nM"
  },
  {
    "Compound": "C=CC(=O)Nc1cc(Nc2cc(N3OCC[C@@H]3c3cccc(-c4cccc(F)c4)c3)ncn2)c(OC)cc1N1CCN(S(C)(=O)=O)CC1 [Example 294]",
    "GI50": "< 50 nM"
  },
  {
    "Compound": "C=CC(=O)Nc1cc(Nc2cc(N3OCC[C@@H]3c3cccc(-c4cccc(F)c4)c3F)ncn2)c(OC)cc1N1CCC(N2CCN(C3CC3)CC2)CC1 [Example 252]",
    "GI50": "< 50 nM"
  },
  {
    "Compound": "C=CC(=O)Nc1cc(Nc2cc(N3OCC[C@H]3c3cccc(-c4cccc(F)c4)c3F)ncn2)c(OC)cc1N1CCC(N2CCN(C3CC3)CC2)CC1 [Example 251]",
    "GI50": "500 to 5000 nM"
  },
  {
    "Compound": "C=CC(=O)Nc1cc(Nc2cc(N3OCCC3c3cccc(-c4cccn5ccnc45)c3)ncn2)c(OC)cc1N1CCN(C)CC1 (stereo not shown) [Example 203]",
    "GI50": "< 50 nM"
  },
  {
    "Compound": "C=CC(=O)Nc1cc(Nc2cc(N3OCC[C@@H]3c3cccc(Oc4cc(F)ccc4F)c3)ncn2)c(OC)cc1N1CCN(C)CC1 [Example compound 103]",
    "GI50": "50 to 500 nM"
  },
  {
    "Compound": "COc1cc(N2CCN(C)CC2)c(NC(=O)/C=C/CN(C)C)cc1Nc1cc(N2OCC[C@@H]2c2cccc(-c3cccc(F)c3)c2)ncn1 [Example 285]",
    "GI50": "< 50 nM"
  },
  {
    "Compound": "C=CC(=O)Nc1cc(Nc2cc(N3OCC[C@@H]3c3cc(F)cc(-c4ccco4)c3)ncn2)c(OC)cc1N1CCN(C)CC1 [Example compound 133]",
    "GI50": "< 50 nM"
  },
  {
    "Compound": "C=CC(=O)Nc1cc(Nc2cc(N3OCCC3c3cccc(-c4cccn5ccnc45)c3)ncn2)c(OC)cc1N(C)CCN(C)C (stereo not shown) [Example 204]",
    "GI50": "< 50 nM"
  }
]
